measuredTarget: human muscarinic M4 receptor (Homo sapiens, UniProt P08173)
Construct: expressed in transfected cells
Sequence (P08173 whole entry): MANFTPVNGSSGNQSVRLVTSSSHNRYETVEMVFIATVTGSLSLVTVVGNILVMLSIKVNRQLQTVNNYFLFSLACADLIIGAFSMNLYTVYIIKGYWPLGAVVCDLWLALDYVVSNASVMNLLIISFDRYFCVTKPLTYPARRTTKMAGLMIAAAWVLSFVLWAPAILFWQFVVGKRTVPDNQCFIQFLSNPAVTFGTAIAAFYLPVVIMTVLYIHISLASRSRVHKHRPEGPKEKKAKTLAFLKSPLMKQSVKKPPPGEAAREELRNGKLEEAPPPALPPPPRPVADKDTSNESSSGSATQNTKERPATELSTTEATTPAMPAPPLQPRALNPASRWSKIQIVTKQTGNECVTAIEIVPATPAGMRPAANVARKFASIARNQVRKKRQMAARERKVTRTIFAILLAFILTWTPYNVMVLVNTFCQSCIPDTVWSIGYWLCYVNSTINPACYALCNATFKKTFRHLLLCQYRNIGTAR
assayMethodText: Alphascreen Surefire phospho-ERK1/2 functional assay, M4
Format: cell-based
conditions: CHO cells stably expressing human M4; phospho-ERK1/2; * = variable results; read-out: pEC50 M4 (converted)
Exercise: for every item that follows, state its recorded EC50.

query: Identify measured EC50 corresponding to CCOC(=O)N1CCC2(CC(N3CCC([C@@H]4CCCN4C(=O)NOC)CC3)C2)C1 (single isomer, unassigned) [2-33 Isomer 1]
result: 7.94 nM

I need EC50 for every entry listed below, if you could help.
1. CCOC(=O)N1CCC2(CC(N3CCC(C4C(=O)NCCC4C)CC3)C2)C1 (single isomer, unassigned) [4-3 Isomer 2]
2. CCOC(=O)N1CCC2(CC(N3CCC(N4CC(F)(F)C[C@H]4C(=O)NC)CC3)C2)C1 (single isomer, unassigned) [2-93 Isomer 2]
3. CCOC(=O)N1CCC2(CC(N3CCC(c4ccon4)CC3)C2)C1 (single isomer, unassigned) [1-43 Isomer 2]
4. CCOC(=O)N1CCC2(CC(N3CCC([C@@H]4CCCN4CC(=O)OC)CC3)C2)C1 (single isomer, unassigned) [2-72 Isomer 2]
5. CCOC(=O)N1CCC2(CC(N3CCC(c4nn(C)cc4C)CC3)C2)C1 (single isomer, unassigned) [1-56 Isomer 2]
6. COC(=O)N1CCC2(CC(N3CCC(c4c(C)cnn4C)CC3)C2)C1 (single isomer, unassigned) [1-57 Isomer 2]

result:
12.6 nM
> 20000 nM
31.6 nM
79.4 nM
126 nM
126 nM

====

measuredTarget: human muscarinic M3 receptor (Homo sapiens)
Sequence (P20309 whole entry): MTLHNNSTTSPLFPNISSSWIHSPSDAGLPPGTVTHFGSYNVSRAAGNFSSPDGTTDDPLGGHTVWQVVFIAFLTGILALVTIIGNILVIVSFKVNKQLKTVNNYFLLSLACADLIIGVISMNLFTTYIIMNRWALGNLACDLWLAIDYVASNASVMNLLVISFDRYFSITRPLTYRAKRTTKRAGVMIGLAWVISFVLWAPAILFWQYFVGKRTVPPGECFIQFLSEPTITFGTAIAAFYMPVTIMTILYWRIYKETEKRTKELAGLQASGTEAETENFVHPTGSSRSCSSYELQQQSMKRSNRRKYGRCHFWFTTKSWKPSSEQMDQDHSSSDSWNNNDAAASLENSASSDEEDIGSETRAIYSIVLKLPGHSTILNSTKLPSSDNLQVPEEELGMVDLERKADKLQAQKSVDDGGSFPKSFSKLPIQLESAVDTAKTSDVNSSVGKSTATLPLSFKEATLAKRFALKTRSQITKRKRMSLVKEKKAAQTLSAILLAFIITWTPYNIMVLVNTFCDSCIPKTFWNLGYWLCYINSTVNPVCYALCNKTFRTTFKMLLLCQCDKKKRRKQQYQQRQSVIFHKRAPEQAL
assayMethodText: Alphascreen Surefire phospho-ERK1/2 functional assay, M3
conditions: CHO, read-out: % Emax cf. ACh, M3, CHO cells stably expressing human M3; relative to ACh
Exercise: for every item that follows, state its recorded Emax.
Numbers only, in %.

I need Emax for every entry listed below, if you could help.
1. CCOC(=O)N1CCC2(CC(N3CCC(N4CCC[C@@H]4CF)CC3)C2)C1 (single isomer, unassigned) [2-102 Isomer 2]
2. CCOC(=O)N1CCC2(CC(N3CCC([C@@H]4CCCN4C(=O)CO)CC3)C2)C1 (single isomer, unassigned) [2-52 Isomer 2]
3. COC(=O)N1CCC2(CC(N3CCC(c4nccn4C)CC3)C2)C1 (single isomer, unassigned) [1-6 Isomer 2]
4. CCOC(=O)N1CCC2(CC(N3CCC([C@@H]4CCCN4C(=O)NOC)CC3)C2)C1 (single isomer, unassigned) [2-33 Isomer 1]
5. CCOC(=O)N1CCC2(CC(N3CCC(N4CSC[C@@H]4C(=O)OC)CC3)C2)C1 (single isomer, unassigned) [2-97 Isomer 2]
6. CCOC(=O)N1CCC2(CC(N3CCC([C@@H]4CCCN4C(=O)NCC(F)(F)F)CC3)C2)C1 (single isomer, unassigned) [2-26 Isomer 2]
7. CCOC(=O)N1CCC2(CC(N3CCC(N4CCC[C@@H]4C(F)(F)F)CC3)C2)C1 (single isomer, unassigned) [2-104 Isomer 2]
8. CCOC(=O)N1CCC2(CC(N3CCC(N4CCC[C@@H]4C(F)F)CC3)C2)C1 (single isomer, unassigned) [2-103 Isomer 2]

result:
11
4
38
3
3
4
8
3

I need Emax for every entry listed below, if you could help.
1. CCOC(=O)N1CCC2(CC(N3CCC([C@@H]4CCCN4Cc4ccccc4)CC3)C2)C1 (single isomer, unassigned) [2-74 Isomer 2]
2. CCOC(=O)N1CCC2(CC(N3CCC(N4CCCOC4=O)CC3)C2)C1 (single isomer, unassigned) [4-7 Isomer 2]
3. CCOC(=O)N1CCC2(CC(N3CCC(C4CCCNC4=O)CC3)C2)C1 (single isomer, unassigned) [4-1 Isomer 4]

result:
1. 8
2. 10
3. 5

I need Emax for every entry listed below, if you could help.
1. COC(=O)N1CCC2(CC(N3CCC(n4ccc(C)n4)CC3)C2)C1 (single isomer, unassigned) [1-45 Isomer 2]
2. CCOC(=O)N1CCC2(CC(N3CCC(c4nc(Cl)c(Cl)n4C)CC3)C2)C1 (single isomer, unassigned) [1-17 Isomer 2]

result:
[26, 0]

Numbers sourced from patent US9926297B2.
